- STUDY_TARGET: human KOR (Homo sapiens)
- Sequence (P41145 whole entry): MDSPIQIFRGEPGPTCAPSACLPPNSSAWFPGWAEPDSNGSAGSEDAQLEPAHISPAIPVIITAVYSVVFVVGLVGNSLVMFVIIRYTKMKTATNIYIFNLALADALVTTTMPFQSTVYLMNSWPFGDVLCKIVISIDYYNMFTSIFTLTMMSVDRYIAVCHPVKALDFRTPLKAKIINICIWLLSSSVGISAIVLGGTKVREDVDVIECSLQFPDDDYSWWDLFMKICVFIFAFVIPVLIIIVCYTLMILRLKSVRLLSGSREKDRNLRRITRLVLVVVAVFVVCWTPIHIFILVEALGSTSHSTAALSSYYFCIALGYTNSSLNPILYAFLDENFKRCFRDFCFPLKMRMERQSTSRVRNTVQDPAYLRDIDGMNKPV
- EXPERIMENT_SUMMARY: In-cell western ERK1/2 phosphorylation in CHO-hKOR cells
- Assay type: cell-based
OBSERVATION_TYPE: EC50 (nM)
Report as a plain number; the unit nM is understood.

FC(F)(F)c1ccc(Cl)c(CSc2nnc(-c3ccccn3)n2Cc2cccnc2)c1 [1.3]    108

# input State EC50 (human KOR (Homo sapiens)) of FC(F)(F)c1ccc(Cl)c(CSc2nnc(-c3ccccn3)n2Cc2cccs2)c1 [1.2] .
# output 594

# input State EC50 (human KOR (Homo sapiens)) of Brc1ccc(CSc2nnc(-c3ccccn3)n2Cc2cccnc2)cc1 [3.3] .
# output 227

# input State EC50 (human KOR (Homo sapiens)) of Ic1ccc(CSc2nnc(-c3ccccn3)n2Cc2cccs2)cc1 [2.2] .
# output 789

# input State EC50 (human KOR (Homo sapiens)) of Brc1ccc(CSc2nnc(-c3ccccn3)n2Cc2ccco2)cc1 [3.1] .
# output 340

# input State EC50 (human KOR (Homo sapiens)) of Ic1ccc(CSc2nnc(-c3ccccn3)n2Cc2ccco2)cc1 [2.1] .
# output 222

# input State EC50 (human KOR (Homo sapiens)) of FC(F)(F)c1ccc(Cl)c(CSc2nnc(-c3ccccn3)n2Cc2ccco2)c1 [1.1] .
# output 242

# input State EC50 (human KOR (Homo sapiens)) of Brc1ccc(CSc2nnc(-c3ccccn3)n2Cc2cccs2)cc1 [3.2] .
# output 672

FYI, the data here is from paper PMC4830356.
